// provenance: the Kinase Knowledgebase extract (Sharma et al. 2016)

# collection of IC50 values tested on EGFR (human) (UniProt P00533)
# Sequence (P00533 whole entry, looked up): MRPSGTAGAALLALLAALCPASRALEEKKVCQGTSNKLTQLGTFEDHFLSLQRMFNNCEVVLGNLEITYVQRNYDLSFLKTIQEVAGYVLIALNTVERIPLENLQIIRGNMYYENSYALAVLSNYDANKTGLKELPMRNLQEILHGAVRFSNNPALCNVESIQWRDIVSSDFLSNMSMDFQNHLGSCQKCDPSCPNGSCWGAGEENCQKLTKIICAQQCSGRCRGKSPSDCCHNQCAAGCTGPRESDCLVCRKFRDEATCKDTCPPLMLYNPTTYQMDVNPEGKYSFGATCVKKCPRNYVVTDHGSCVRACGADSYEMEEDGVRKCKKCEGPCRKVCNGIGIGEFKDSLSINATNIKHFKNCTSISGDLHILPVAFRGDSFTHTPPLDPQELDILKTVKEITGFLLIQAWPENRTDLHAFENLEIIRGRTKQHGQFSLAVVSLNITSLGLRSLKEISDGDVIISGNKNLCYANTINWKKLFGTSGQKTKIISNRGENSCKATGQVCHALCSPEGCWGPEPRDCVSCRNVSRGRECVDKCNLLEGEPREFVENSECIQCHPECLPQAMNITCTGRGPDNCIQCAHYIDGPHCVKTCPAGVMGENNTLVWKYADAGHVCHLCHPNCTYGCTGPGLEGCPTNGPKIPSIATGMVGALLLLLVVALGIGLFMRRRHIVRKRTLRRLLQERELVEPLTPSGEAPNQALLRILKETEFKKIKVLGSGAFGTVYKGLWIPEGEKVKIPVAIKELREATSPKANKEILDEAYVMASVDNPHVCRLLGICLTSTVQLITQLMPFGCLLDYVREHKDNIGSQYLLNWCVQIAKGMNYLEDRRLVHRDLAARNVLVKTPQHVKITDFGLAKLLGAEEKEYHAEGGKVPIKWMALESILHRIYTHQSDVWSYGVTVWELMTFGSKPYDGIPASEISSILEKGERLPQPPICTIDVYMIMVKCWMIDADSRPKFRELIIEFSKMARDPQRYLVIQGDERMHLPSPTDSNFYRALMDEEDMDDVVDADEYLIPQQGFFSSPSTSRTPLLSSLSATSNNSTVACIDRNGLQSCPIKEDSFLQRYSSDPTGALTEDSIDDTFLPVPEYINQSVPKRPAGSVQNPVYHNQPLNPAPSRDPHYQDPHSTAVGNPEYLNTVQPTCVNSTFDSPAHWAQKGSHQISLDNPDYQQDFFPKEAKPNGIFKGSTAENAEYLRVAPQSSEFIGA

Observe how each entry below is paired with its result.
[[record]]
compound = "COCCOc1cc2ncnc(Nc3ccc(F)c(Cl)c3)c2cc1NC(=O)CCCC(=O)NO"
target = "EGFR (human) (UniProt P00533)"
endpoint_value = "≤ 100 nM"

[[record]]
compound = "C#Cc1cccc(Nc2ncnc3ccc(OCCCCCC(=O)NO)cc23)c1"
target = "EGFR (human) (UniProt P00533)"
endpoint_value = "100 to 1000 nM"

[[record]]
compound = "C#Cc1cccc(Nc2ncnc3ccc(OCC(=O)NO)cc23)c1"
target = "EGFR (human) (UniProt P00533)"
endpoint_value = "≤ 100 nM"

[[record]]
compound = "COc1cc2ncnc(Nc3ccc(F)c(Cl)c3)c2cc1SCCCCC(=O)NO"
target = "EGFR (human) (UniProt P00533)"
endpoint_value = "≤ 100 nM"

[[record]]
compound = "COc1cc2ncnc(Nc3ccc(F)c(Cl)c3)c2cc1OCCC(=O)NO"
target = "EGFR (human) (UniProt P00533)"
endpoint_value = "≤ 100 nM"


Field request: IC50 | item: `C#Cc1cccc(Nc2ncnc3cc(OC)c(NC(=O)CCCCCCC(=O)NO)cc23)c1`
≤ 100 nM

Entry `COc1cc2ncnc(Nc3ccc(F)c(Cl)c3)c2cc1OCCCCCC(=O)NO` please
≤ 100 nM

Entry `C#Cc1cccc(Nc2ncnc3cc(OC)c(OCCCCCC(=O)NO)cc23)c1` please
≤ 100 nM
